Assay: Cytotoxicity against MDCK cells after 72 hrs
Format: cell-based, Canis lupus familiaris
Settings: dog
Measure: CC50 at 72 h

Reference set, count: 8
| Compound | CC50 at 72 h |
| --- | --- |
| CC(C)=CCc1c(O)ccc(C(=O)/C=C/c2cc(O)c3c(c2)C=CC(C)(C)O3)c1O | 135 µM |
| O=C1C[C@@H](c2ccc(O[C@@H]3O[C@H](CO)[C@@H](O)[C@H](O)[C@H]3O)cc2)Oc2cc(O)ccc21 [LIQUIRITIN] | > 239 µM |
| CC1(C)C=Cc2c(ccc([C@@H]3COc4c(ccc5c4C=CC(C)(C)O5)C3)c2O)O1 [HISPAGLABRIDIN B] | 39.2 µM |
| CC1(C)C=Cc2c(ccc3c2OCC(O)C3)O1 (centres undefined) | 336 µM |
| O=C1C[C@@H](c2ccc(O)cc2)Oc2cc(O[C@@H]3O[C@H](CO)[C@@H](O)[C@H](O)[C@H]3O)cc(O)c21 [PRUNIN] | 126 µM |
| CC(C)=CCc1cc([C@@H]2CC(=O)c3ccc(O)c(CC=C(C)C)c3O2)ccc1O [GLABROL] | 25.4 µM |
| CC1(C)C=Cc2c(ccc(-c3coc4cc(O)ccc4c3=O)c2O)O1 [GLABRONE] | 90.8 µM |
| O=C1C[C@@H](c2ccc(O)cc2)Oc2cc(O)ccc21 [LIQUIRTIGENIN] | 301 µM |

Next compound, please.
**Q:** Look at this compound and give its reported CC50 at 72 h. COc1ccc(-c2coc3cc(O)ccc3c2=O)cc1 [FORMONONETIN]
**A:** 123 µM

---

Assay: Induction of fluorescence at 100 uM relative to 4-methylumbelliferone
Type: physicochemical
Listing: Activity of selected molecules
Please reply with the bare figure in % and do not write the unit itself.

| Molecule | Activity [%] |
| --- | --- |
| CC1(C)C=Cc2c(ccc(-c3coc4cc(O)ccc4c3=O)c2O)O1 | 0.68 |
| COc1ccc(-c2coc3cc(O)ccc3c2=O)cc1 | 15.4 |

**Q:** Look at this molecule and give its reported Activity. CC1(C)C=Cc2c(ccc3c2OCC(O)C3)O1 (stereo unspecified)
**A:** 0

**Q:** Look at this molecule and give its reported Activity. `CCOC(=O)C1=C[C@@H](OC(CC)CC)[C@H](NC(C)=O)[C@@H](N)C1`
**A:** 0.05

**Q:** Look at this molecule and give its reported Activity. `CC1(C)C=Cc2c(ccc([C@@H]3COc4c(ccc5c4C=CC(C)(C)O5)C3)c2O)O1`
**A:** 0.05

**Q:** Look at this molecule and give its reported Activity. `CC(C)=CCc1cc([C@@H]2CC(=O)c3ccc(O)c(CC=C(C)C)c3O2)ccc1O`
**A:** 1.18

---

Test: Induction of fluorescence quenching at 100 uM relative to 4-methylumbelliferone
Assay type: physicochemical
Measure: Activity (%)
Please reply with the bare figure in % and do not write the unit itself.

Reference set, count: 5
| Compound | Activity [%] |
| --- | --- |
| CC1(C)C=Cc2c(ccc(-c3coc4cc(O)ccc4c3=O)c2O)O1 [GLABRONE] | 28.3 |
| COc1ccc(-c2coc3cc(O)ccc3c2=O)cc1 [FORMONONETIN] | -12.4 |
| CC1(C)C=Cc2c(ccc([C@@H]3COc4c(ccc5c4C=CC(C)(C)O5)C3)c2O)O1 [HISPAGLABRIDIN B] | 15.1 |
| CC(C)=CCc1cc([C@@H]2CC(=O)c3ccc(O)c(CC=C(C)C)c3O2)ccc1O [GLABROL] | 37.4 |
| CC1(C)C=Cc2c(ccc3c2OCC(O)C3)O1 (stereo unspecified) | 15 |

**Q:** Look at this compound and give its reported Activity. CCOC(=O)C1=C[C@@H](OC(CC)CC)[C@H](NC(C)=O)[C@@H](N)C1 [OSELTAMIVIR]
**A:** 12.8

---

System: Influenza A virus
Experiment: Antiviral activity against Influenza A virus (A/Hong Kong/1/1968(H3N2)) infected in MDCK cells assessed as inhibition of virus-induced cytopathic effect at 50 uM after 48 hrs
Type: functional
The source made the active and inactive calls. The calls are words filed in the database; no cut-off is given here.
Measure: inhibition

Reference set, count: 5
| Compound | Subject of test | inhibition |
| --- | --- | --- |
| O=C1C[C@@H](c2ccc(O[C@@H]3O[C@H](CO)[C@@H](O)[C@H](O)[C@H]3O)cc2)Oc2cc(O)ccc21 [LIQUIRITIN] | Influenza A virus | inactive |
| CC(C)=CCc1cc([C@@H]2CC(=O)c3ccc(O)c(CC=C(C)C)c3O2)ccc1O [GLABROL] | Influenza A virus | inactive |
| CC1(C)C=Cc2c(ccc3c2OCC(O)C3)O1 (configuration not stated) | Influenza A virus | inactive |
| O=C1C[C@@H](c2ccc(O)cc2)Oc2cc(O)ccc21 [LIQUIRTIGENIN] | Influenza A virus | inactive |
| O=C1C[C@@H](c2ccc(O[C@@H]3O[C@H](CO)[C@@H](O)[C@H](O)[C@H]3O[C@H]3OC[C@@](O)(COC(=O)c4c[nH]c5ccccc45)[C@@H]3O)cc2)Oc2cc(O)ccc21 | Influenza A virus | inactive |

**Q:** Enter reported inhibition observed with Influenza A virus for `O=C(/C=C/c1ccc(O)cc1)OC[C@]1(O)CO[C@H](O[C@H]2[C@H](Oc3ccc(/C=C/C(=O)c4ccc(O)cc4O)cc3)O[C@H](CO)[C@@H](O)[C@@H]2O)[C@H]1O`
**A:** inactive

**Q:** Enter reported inhibition observed with Influenza A virus for O=C1C[C@@H](c2ccc(O)cc2)Oc2cc(O[C@@H]3O[C@H](CO)[C@@H](O)[C@H](O)[C@H]3O)cc(O)c21 [PRUNIN]
**A:** inactive
